The molecules listed here are annotated with their Population Healthy Nuclei (%).
system: U2OS; test: Multiplex assay against U2OS; type: toxicity, cell-based; settings: human, 24 h, 10 µM, compound concentration 10 uM, replicate 2
Observation type: Population Healthy Nuclei (%)

[[record]]
molecule = "CC[C@@H](C)Nc1nc(C)nc2c(-c3ccc(OC)nc3C)c(C)nn12 [PEXACERFONT]"
observation_type = "Population Healthy Nuclei (%)"
observed = 77

[[record]]
molecule = "COc1ccccc1N1CCN(C[C@@H](C(=O)NC(C)(C)C)c2ccccc2)CC1.Cl.Cl"
observation_type = "Population Healthy Nuclei (%)"
observed = 63

[[record]]
molecule = "O=C(CCCc1ccccc1)Nc1nc2ccccc2c(=O)s1"
observation_type = "Population Healthy Nuclei (%)"
observed = 71

[[record]]
molecule = "Cc1cnc(-c2cc(N3CCN(C(=O)CCS(C)(=O)=O)CC3)ncc2Cl)c(C)c1"
observation_type = "Population Healthy Nuclei (%)"
observed = 64

[[record]]
molecule = "N#Cc1cc(F)cc(-c2nc(-c3ccc(F)cn3)no2)c1"
observation_type = "Population Healthy Nuclei (%)"
observed = 85

[[record]]
molecule = "CN(C)C(=O)Cn1cc(-c2ccc(-c3cncc4ccccc34)cc2)cn1"
observation_type = "Population Healthy Nuclei (%)"
observed = 84

[[record]]
molecule = "Br.CS(=O)(=O)Nc1c(O)ccc2c1CCCC2C1=NCCN1 (configuration not stated)"
observation_type = "Population Healthy Nuclei (%)"
observed = 80

[[record]]
molecule = "CN[C@@H](C)C(=O)N[C@H](C(=O)N1CCC[C@H]1C(=O)Nc1snnc1-c1ccccc1)C1CCCCC1 [GDC-0152]"
observation_type = "Population Healthy Nuclei (%)"
observed = 40

[[record]]
molecule = "C[C@H](N)COC(=O)[C@@H](CCCCN)NC(=O)Cc1c(-c2ccc3ccccc3c2)[nH]c2c1ccc1ccccc12"
observation_type = "Population Healthy Nuclei (%)"
observed = 79

[[record]]
molecule = "Cc1sc2c(c1C)C(c1ccc(Cl)cc1)=N[C@@H](CC(=O)NCCCCCCCCNC(=O)COc1cccc3c1C(=O)N(C1CCC(=O)NC1=O)C3=O)c1nnc(C)n1-2 (some centres not stated)"
observation_type = "Population Healthy Nuclei (%)"
observed = 65

[[record]]
molecule = "CCCCC(=O)N(Cc1ccc(-c2ccccc2-c2nnn[nH]2)cc1)[C@H](C(=O)O)C(C)C"
observation_type = "Population Healthy Nuclei (%)"
observed = 67

[[record]]
molecule = "CCC(=O)N1CCN(c2ccc(-n3c(=O)ccc4cnc5ccc(-c6cnc7ccccc7c6)cc5c43)cc2C(F)(F)F)CC1 [TORIN1]"
observation_type = "Population Healthy Nuclei (%)"
observed = 72

[[record]]
molecule = "O=C1[C@H](Cc2ccc(O)cc2)N2C(=O)CCN(C(=O)NCc3ccccc3)[C@H]2CN1Cc1cccc2ccccc12"
observation_type = "Population Healthy Nuclei (%)"
observed = 54

[[record]]
molecule = "Cc1noc(-c2ccc(-c3ccc(CC(=O)O)cc3)cc2)c1NC(=O)O[C@H](C)c1ccccc1Cl"
observation_type = "Population Healthy Nuclei (%)"
observed = 80

[[record]]
molecule = "O=C(NCCN1CCC(n2c(=O)[nH]c3cc(Cl)ccc32)CC1)c1ccc(F)cc1 [HALOPEMIDE]"
observation_type = "Population Healthy Nuclei (%)"
observed = 71

[[record]]
molecule = "Cl.N=C(N)NC(=O)Cc1c(Cl)cccc1Cl [GUANFACINE HYDROCHLORIDE]"
observation_type = "Population Healthy Nuclei (%)"
observed = 76

[[record]]
molecule = "CC(C)c1noc(N2CCC(COc3ccc(-c4ccc(S(C)(=O)=O)cc4)nc3)CC2)n1 [GSK-1292263]"
observation_type = "Population Healthy Nuclei (%)"
observed = 75

